- systemUnderTest: human MetAP2 enzyme (Homo sapiens, UniProt P50579)
- Sequence (P50579 whole entry): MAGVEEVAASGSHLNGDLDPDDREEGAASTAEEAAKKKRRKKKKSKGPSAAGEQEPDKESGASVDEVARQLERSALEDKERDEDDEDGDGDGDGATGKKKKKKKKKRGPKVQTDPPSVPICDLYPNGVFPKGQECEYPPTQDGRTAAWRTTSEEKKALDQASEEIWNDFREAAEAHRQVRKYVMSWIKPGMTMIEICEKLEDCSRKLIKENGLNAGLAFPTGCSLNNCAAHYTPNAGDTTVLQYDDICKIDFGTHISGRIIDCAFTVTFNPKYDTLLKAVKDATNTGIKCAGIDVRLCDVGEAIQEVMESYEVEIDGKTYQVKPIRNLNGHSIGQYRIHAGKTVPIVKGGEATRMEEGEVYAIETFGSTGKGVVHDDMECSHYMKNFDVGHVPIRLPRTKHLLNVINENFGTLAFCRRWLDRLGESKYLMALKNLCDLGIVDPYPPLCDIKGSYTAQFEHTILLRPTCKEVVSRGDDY
- measurementNotes: MetAP2 enzyme assay, enzyme complexed with manganese ions
- assayContext: MetAP2 Mn pIC50, MetAP2 enzyme complexed with manganese ions; Met-AMC substrate at Km
quantityKind: IC50

>>> experimentalresult("COc1ccc(N)c(-c2cc(C(F)(F)F)cc3[nH]ncc23)n1")
"20 nM"
>>> experimentalresult("NC(=O)c1ncc(-c2cc(C(F)(F)F)cc3[nH]ncc23)cn1")
"6.31 nM"
>>> experimentalresult("COc1nccc(-c2cc(C(F)(F)F)cc3[nH]ncc23)c1Cl")
"15.8 nM"
>>> experimentalresult("Cc1c(-c2cc(C(F)(F)F)cc3[nH]ncc23)ccc(=O)n1C")
"3.16 nM"
>>> experimentalresult("Cc1nn(C[C@@H]2CCC(=O)N2)c(C)c1-c1cc(C(F)(F)F)cc2[nH]ncc12")
"20 nM"
>>> experimentalresult("N#Cc1cnc(N)c(-c2cc(C(F)(F)F)cc3[nH]ncc23)c1")
"10 nM"
>>> experimentalresult("COc1cccc(-c2cc(C(F)(F)F)cc3[nH]ncc23)c1OC")
"7.94 nM"
>>> experimentalresult("CN1CCN(C(=O)c2cc(-c3cc(C(F)(F)F)cc4[nH]ncc34)c[nH]c2=O)CC1")
"7.94 nM"
>>> experimentalresult("COc1ncc(-c2cc(C(F)(F)F)cc3[nH]ncc23)cc1C(=O)NCCO [Example 229]")
"6.31 nM"
>>> experimentalresult("CN(C)C(=O)Cn1c(=O)c(-c2cc(C(F)(F)F)cc3[nH]ncc23)cn(C)c1=O")
"20 nM"
>>> experimentalresult("COc1nccc(C)c1-c1cc(C(F)(F)F)cc2[nH]ncc12")
"31.6 nM"
>>> experimentalresult("O=C1COc2c(cccc2-c2cc(C(F)(F)F)cc3[nH]ncc23)N1")
"10 nM"
>>> experimentalresult("O=C(NCCO)c1ccc(-c2cc(C(F)(F)F)cc3[nH]ncc23)cc1F")
"3.16 nM"
>>> experimentalresult("FC(F)(F)c1cc(-c2ncn3ccccc23)c2cn[nH]c2c1")
"15.8 nM"
>>> experimentalresult("FC(F)(F)c1cc(-c2cnc3[nH]ccc3n2)c2cn[nH]c2c1")
"5.01 nM"
>>> experimentalresult("FC(F)(F)c1cc(-c2cccc3ncccc23)c2cn[nH]c2c1")
"10 nM"
>>> experimentalresult("Cc1cc(Cn2nc(CO)c(-c3cc(C(F)(F)F)cc4[nH]ncc34)c2C)on1 (single isomer, unassigned)")
"7.94 nM"
>>> experimentalresult("FC(F)(F)c1cc(-c2cnc(N3CCOCC3)cn2)c2cn[nH]c2c1")
"3.16 nM"
